Origin of values: ChEMBL document CHEMBL4052727

# Tested on: L6
# protocol.description: Cytotoxicity against rat L6 cells after 72 hrs by Alamar blue assay
# Assay type: cell-based
# test.conditions: L6, 72 h, read-out: IC50
Reported log10(IC50) values for a set of molecules
// do not treat as linear: log10 of IC50, unit µM

CC(C)=CCc1cc(O)cc2c1OC(C=C(C)C)C1=C2C(=O)C2=C(C1=O)S(=O)(=O)CCN2 (stereo unspecified)
1.11
CC(C)=CCC/C(C)=C/CC/C(C)=C/Cc1cc2c(cc1O)C1=C(C(=O)C3=C(NCCS3(=O)=O)C1=O)C(/C=C(\C)CC/C=C(\C)CCC=C(C)C)O2 (stereo unspecified)
1.41

Task item: What does the record list as log10(IC50) for CC(C)=CCc1cc2c(cc1O)C1=C(C(=O)C3=C(C1=O)S(=O)(=O)CCN3)C(C=C(C)C)O2 (stereo unspecified) ?
Reply: -0.40
